B1: tRNA (parent)
chain: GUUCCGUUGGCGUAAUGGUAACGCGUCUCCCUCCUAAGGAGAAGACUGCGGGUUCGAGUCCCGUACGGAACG

- Variants of: B1
- protocol_summary: yeast fitness, log relative to wild type (ln ratio); higher = fitter; tRNA-Arg(CCU), competitive growth, 37 C, 1 M NaCl
Kind request: treat -0.2 as inclusive, so yeast fitness (ln) at -0.2 or higher is Satisfied, anything lower is Not satisfied.

variant_key	answer_label
U2G G6A C27U C46U C66U A69G C71U	Not satisfied

Given A43C C46U A70G , state whether its yeast fitness (ln) is at least -0.2.
Satisfied

Now consider U2G A43C C46U C66U A69G A70G .
Satisfied

Now consider G1A G6U C27U A43C C66U A70G C71U .
Not satisfied

Now consider A43C C46U A70U .
Satisfied

Now consider G1A C66A .
Satisfied
